Hello, the source for this data is patent US7851500B2, in case you need it.

This section lists pIC50 readings for IGF1-receptor (Homo sapiens, UniProt P08069).
// pIC50 here means minus log10 of the molar concentration (mol/L)

smiles_str=CC(C)(C)OC(=O)N1CC(NC(=O)c2cccc(Sc3cc(Nc4ncnn5cccc45)n[nH]3)c2)C1 quantity=pIC50 value_observed=6.53

What value of measured pIC50 is listed for O=C(NC1CN(S(=O)(=O)c2ccc(F)cc2)C1)c1cccc(Sc2cc(Nc3ccccn3)n[nH]2)c1 ?
7.82
